- System: Peroxisome proliferator-activated receptor alpha (Homo sapiens) (UniProt Q07869)
- Sequence (Q07869 whole entry, looked up): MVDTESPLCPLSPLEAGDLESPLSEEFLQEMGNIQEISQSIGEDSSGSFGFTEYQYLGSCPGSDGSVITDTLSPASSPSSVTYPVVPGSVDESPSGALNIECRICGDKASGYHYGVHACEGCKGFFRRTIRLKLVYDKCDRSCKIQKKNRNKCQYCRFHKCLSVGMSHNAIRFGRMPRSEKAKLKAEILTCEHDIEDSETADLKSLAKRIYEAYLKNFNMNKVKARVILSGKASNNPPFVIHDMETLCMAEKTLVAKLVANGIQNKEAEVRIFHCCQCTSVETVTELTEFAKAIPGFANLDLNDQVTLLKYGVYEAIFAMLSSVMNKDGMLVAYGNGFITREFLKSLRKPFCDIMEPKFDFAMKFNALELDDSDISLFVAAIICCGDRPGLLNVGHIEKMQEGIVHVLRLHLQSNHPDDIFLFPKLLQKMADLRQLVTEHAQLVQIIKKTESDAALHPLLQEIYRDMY
- Measurement description: qHTS assay for small molecule agonists of the peroxisome proliferator-activated receptor alpha (PPARalpha) signaling pathway (AID 651778); also: % of control where 0% means no effect
- Measurement conditions: PathHunter PPARalpha complementation, chemiluminescence, 6 h; active compounds read high
# max response per entry
Give the value, in units of %, as a plain number.

For orientation, consider the following solved cases.
* Oc1cc(Cl)c(Cl)c(Cl)c1Cl | 0.278
* Nc1ccc(Cc2ccc(N)c(Cl)c2)cc1Cl | 2.66
* Clc1ccc(C(Cl)(Cl)Cl)c(Cl)c1 | -0.345
* CC[N+](=O)[O-] | 1.55

Let's switch to this compound now.
Ask: Please provide the recorded max response for O=[N+]([O-])c1cccc(O)c1 , tested on Peroxisome proliferator-activated receptor alpha (Homo sapiens) (UniProt Q07869).
Reply: -4.41

====

- System: Mitogen-activated protein kinase 10 (Mus musculus)
- Measurement description: JNK3 AlphaScreen Assay (AID 530);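 also: kinase came from lysate of stimulated human HepG2 cells; signal reports phosphorylation of biotinylated GST-cJun 1-79 at Ser73 with 10 µM ATP; % is scaled to controls: 0 for no effect and ±100 for the full control effect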
- Measurement conditions: JNK3 lysate, c-Jun phosphorylation; series mostly up to 57.1 µM
- Source text: NIH Chemical Genomics Center [NCGC] NIH Molecular Libraries Screening Centers Network [MLSCN] The c-jun N-terminal kinase (JNK) family are serine/threonine protein kinases that phosphorylate c-jun, a component of the transcription factor protein-1 (AP-1). […] A homogeneous AlphaScreen is developed to measure the activity of JNK3. […] The phosphorylation of a biotinylated c-jun substrate by JNK3 can be detected with an antibody raised against phosphorylated c-jun. […]
Results filed as inconclusive are left out. The source made the active and inactive calls. The call rests on the fitted dose curve; in most records, active means well fitted curve in either direction with a large enough effect (not every such curve was filed as active); inconclusive means small, poorly fitted or top-dose-only effect, or another doubt; inactive means flat fitted curve, though single readings scatter.
Attribute measured: activity change, negative = inhibition

# count of solved cases: 10
* C[C@@H]1O[C@@H](O[C@H]2C[C@@H](O)[C@@]3(CO)[C@H]4[C@H](O)C[C@]5(C)[C@@H](C6=CC(=O)OC6)CC[C@]5(O)[C@H]4CC[C@@]3(O)C2)[C@@H](O)[C@H](O)[C@H]1O | -1.14% [at 11.4 µM] (inactive)
* C[C@H]1CC[C@@]2(NC1)O[C@@H]1C[C@@H]3[C@@H]4CC=C5C[C@@H](O)CC[C@]5(C)[C@@H]4CC[C@]3(C)[C@H]1[C@@H]2C | -0.366% [at 11.4 µM] (inactive)
* CC(=O)O/C(=C1/C[C@H]2[C@@H]3CC=C4C[C@@H](OC(C)=O)CC[C@]4(C)[C@@H]3CC[C@]2(C)C1=O)C(F)(F)F | -0.565% [at 11.4 µM] (inactive)
* CC(C)CNCCc1ccccn1 | 2.37% [at 11.4 µM] (inactive)
* CCOC(=O)CBr | inactive
* Nc1ccc(Cc2ccc(N)c(Cl)c2)cc1Cl | inactive
* CN(C)CCCNc1c2c(nc3ccc(Cl)cc13)CCCC2 | 3.7% [at 11.4 µM] (inactive)
* O=C(O)C(Br)CBr (centres undefined) | inactive
* O=[N+]([O-])c1ccccc1O | inactive
* O=P(O)(O)CCP(=O)(O)O | -1.32% [at 11.4 µM] (inactive)

Ask: Recorded activity change, negative = inhibition for O=C(O)C(=O)Cc1ccc2c(c1)OCO2 , please?
Reply: 4.31% [at 11.4 µM] (inactive)

Ask: # activity change, negative = inhibition lookup, item O=[N+]([O-])c1ccc(Cl)c(Cl)c1Cl
Reply: inactive

Ask: Return reported activity change, negative = inhibition; argument: CCn1cnc2c(Nc3cccc(Cl)c3)nc(N[C@@H]3CCCC[C@H]3N)nc21
Reply: inactive

Ask: For the compound shown here, O=[N+]([O-])c1cc(Cl)c(Cl)cc1Cl , give the reported activity change, negative = inhibition.
Reply: inactive

Ask: Report activity change, negative = inhibition for C1C[C@@H]2CN(CCCN3CCOCC3)[C@@H](C1)O2 please.
Reply: 4.78% [at 11.4 µM] (inactive)
